- tested-on: T1, human CD33, full length, on cells (human, UniProt P20138 18-364)
- T1 construct: NIH-3T3 cells stably overexpressing full-length human CD33, or AML lines U937 and Set2 with endogenous CD33; the cell line is named under assay; also called 3T3-huCD33; 3T3-CD33
- test-method-notes: flow cytometry, hybridoma supernatant, 3T3-huCD33 cells
recorded-endpoint: MFI (MFI)
Answer in MFI, number only, no unit symbol.

Record request: MFI value, item 4-P3 (antibody, V domains shown, AlivaMab mouse hybridoma antibody; also called 4-P3-A) VH: EVQLLESGGGLVQPGGSLRLSCAASGFTFSTYAMSWVRQAPGKGLEWVSAISGRGGSTYYTDSVKGRFTISRDNSKNTVSLQMNSLRAEDTAVYYCAGRGDYYYYYGMDVWGQGTTVTVSA VL: DIVMTQSPLSSPVTLGQPASISCRSSQSLVYSDGNTYLSWLQQRPGQPPRLLIYKISNRFSGVPDRFSGSGAGTDFTLKISRVEAEDVGVYYCMQSTQFPHTFGQGTKLEIK
1.32e+06

# repeat for 1-P23 (antibody, V domains shown, AlivaMab mouse hybridoma antibody; also called 1-P23-A) VH: QVQLVESGGGVVQPGRSLRLSCAASGFTFNSYGMHWVRQAPGKGLEWVAIISYDGSNKYYADSVKGRFTISRDNSKNTLYLQMNSLRAEDTAVYYCARDNYDSSGYNWYFDLWGRGTLVTVSS VL: SSELTQDPAVSVALGQTVRITCQGDSLRSYYASWYQQKPGQAPVLVIYGKNNRPSGIPDRFSGSSSGNTASLTITGAQAEDEADYYCNSRDSSGNLWVFGGGTKLTVL
4.08e+06

Origin of measurements: patent US20240262910A1
